- EXPERIMENT DESCRIPTION: Tacrolimus pharmacokinetic profiles and trough level monitoring before and after switch of booster from ritonavir to cobicistat in an HIV-infected kidney transplant recipient
- Type: in vivo, human
- CONDITIONS: human, plasma, oral, co-administered with darunavir/ritonavir 800/100 mg once daily; 2nd pharmacokinetic profile; read-out: Tmax
- Description: Due to the high daily pill burden (i.e., 4 tablets mycophenolate mofetil, 10 tablets for the antiretroviral regimen, 7 pills for the treatment of cardiovascular risk factors, and 8 pills for additional indications), and with new combination antiretroviral pills available, a treatment simplification was envisaged. […]
MEASURED PROPERTY: Tmax

# COMPOUND, MEASURED PROPERTY, RESULT
data = [
    ("C=CC[C@@H]1/C=C(\\C)C[C@H](C)C[C@H](OC)[C@H]2O[C@@](O)(C(=O)C(=O)N3CCCC[C@H]3C(=O)O[C@H](/C(C)=C/[C@@H]3CC[C@@H](O)[C@H](OC)C3)[C@H](C)[C@@H](O)CC1=O)[C@H](C)C[C@@H]2OC [Tacrolimus, tacrolimus]", "Tmax", "4 h"),
]

---

- EXPERIMENT DESCRIPTION: Tacrolimus pharmacokinetic profiles and trough level monitoring before and after switch of booster from ritonavir to cobicistat in an HIV-infected kidney transplant recipient
- Type: in vivo, human
- CONDITIONS: human, plasma, oral, co-administered with darunavir/cobicistat 800/150 mg once daily; 2nd pharmacokinetic profile; dosing interval 11 days; read-out: AUC264h

# COMPOUND, AUC(0-t) / ng·h/mL
records = [
    ("C=CC[C@@H]1/C=C(\\C)C[C@H](C)C[C@H](OC)[C@H]2O[C@@](O)(C(=O)C(=O)N3CCCC[C@H]3C(=O)O[C@H](/C(C)=C/[C@@H]3CC[C@@H](O)[C@H](OC)C3)[C@H](C)[C@@H](O)CC1=O)[C@H](C)C[C@@H]2OC [Tacrolimus, tacrolimus]", 1870),
]

---

- EXPERIMENT DESCRIPTION: Tacrolimus pharmacokinetic profiles and trough level monitoring before and after switch of booster from ritonavir to cobicistat in an HIV-infected kidney transplant recipient
- Format: in vivo, human
- CONDITIONS: human, plasma, oral, co-administered with darunavir/cobicistat 800/150 mg once daily; 2nd pharmacokinetic profile

# COMPOUND, Cmax [ng/mL]
data = [
    ("C=CC[C@@H]1/C=C(\\C)C[C@H](C)C[C@H](OC)[C@H]2O[C@@](O)(C(=O)C(=O)N3CCCC[C@H]3C(=O)O[C@H](/C(C)=C/[C@@H]3CC[C@@H](O)[C@H](OC)C3)[C@H](C)[C@@H](O)CC1=O)[C@H](C)C[C@@H]2OC", 13.7),
]

---

- EXPERIMENT DESCRIPTION: Tacrolimus pharmacokinetic profiles and trough level monitoring before and after switch of booster from ritonavir to cobicistat in an HIV-infected kidney transplant recipient
- Assay type: in vivo, human
- CONDITIONS: human, plasma, oral, 0.5 mg, co-administered with darunavir/ritonavir 800/100 mg once daily; 2nd pharmacokinetic profile
MEASURED PROPERTY: Cmax (ng/mL)

# COMPOUND, READOUT NUMBER
data = [
    ("C=CC[C@@H]1/C=C(\\C)C[C@H](C)C[C@H](OC)[C@H]2O[C@@](O)(C(=O)C(=O)N3CCCC[C@H]3C(=O)O[C@H](/C(C)=C/[C@@H]3CC[C@@H](O)[C@H](OC)C3)[C@H](C)[C@@H](O)CC1=O)[C@H](C)C[C@@H]2OC", 17.7),
]
